target: TbAQP2 (Trypanosoma brucei brucei); experiment: cell-based; settings: IC50, pentamidine inhibition of TbAQP2, pH 3.5
outcomeMeasure: IC50 (µM)
Respond with the bare value in µM.

Input: Query the reported IC50 for TbAQP2 (Trypanosoma brucei brucei); item: N=C(N)c1ccc(OCCCCCOc2ccc(C(=N)N)cc2)cc1 [pentamidine]
Output: 0.45

---

Target: UniProt Q6ZXT3
Sequence (Q6ZXT3 1-312): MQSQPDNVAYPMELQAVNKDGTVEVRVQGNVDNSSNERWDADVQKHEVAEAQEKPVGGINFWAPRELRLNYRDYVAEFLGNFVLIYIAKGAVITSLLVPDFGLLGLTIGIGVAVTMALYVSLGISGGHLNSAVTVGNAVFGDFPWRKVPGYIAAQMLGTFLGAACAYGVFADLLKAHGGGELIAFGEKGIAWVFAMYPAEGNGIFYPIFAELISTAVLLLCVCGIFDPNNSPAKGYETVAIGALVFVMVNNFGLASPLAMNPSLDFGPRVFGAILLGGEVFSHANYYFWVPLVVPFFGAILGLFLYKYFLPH
Test: cell-based
Settings: IC50, inhibition of TbAQP2 glycerol permeability
outcomeMeasure: IC50
The reply should read as a number followed by its unit.

> print(dat)
               chemsmiles  outcomemeasure  valueobserved
1  CCCCCOc1ccc(C(=N)N)cc1            IC50          87 µM

Input: I'd like to know its IC50. The compound in question is `N=C(N)c1ccc(OCCCCCOc2ccc(C(=N)N)cc2)cc1`
Output: 0.13 µM

Input: Then `CCCOc1ccc(C(=N)N)cc1` ?
Output: 2800 µM

Input: Then `N#Cc1ccc(OCCCCCOc2ccc(C(=N)N)cc2)cc1` ?
Output: 0.18 µM
